# system-name: PI3Kgamma (Homo sapiens, UniProt P48736)
# Construct: His (N); host or cells: SF9 insect cells (baculovirus)
# Sequence (P48736 whole entry): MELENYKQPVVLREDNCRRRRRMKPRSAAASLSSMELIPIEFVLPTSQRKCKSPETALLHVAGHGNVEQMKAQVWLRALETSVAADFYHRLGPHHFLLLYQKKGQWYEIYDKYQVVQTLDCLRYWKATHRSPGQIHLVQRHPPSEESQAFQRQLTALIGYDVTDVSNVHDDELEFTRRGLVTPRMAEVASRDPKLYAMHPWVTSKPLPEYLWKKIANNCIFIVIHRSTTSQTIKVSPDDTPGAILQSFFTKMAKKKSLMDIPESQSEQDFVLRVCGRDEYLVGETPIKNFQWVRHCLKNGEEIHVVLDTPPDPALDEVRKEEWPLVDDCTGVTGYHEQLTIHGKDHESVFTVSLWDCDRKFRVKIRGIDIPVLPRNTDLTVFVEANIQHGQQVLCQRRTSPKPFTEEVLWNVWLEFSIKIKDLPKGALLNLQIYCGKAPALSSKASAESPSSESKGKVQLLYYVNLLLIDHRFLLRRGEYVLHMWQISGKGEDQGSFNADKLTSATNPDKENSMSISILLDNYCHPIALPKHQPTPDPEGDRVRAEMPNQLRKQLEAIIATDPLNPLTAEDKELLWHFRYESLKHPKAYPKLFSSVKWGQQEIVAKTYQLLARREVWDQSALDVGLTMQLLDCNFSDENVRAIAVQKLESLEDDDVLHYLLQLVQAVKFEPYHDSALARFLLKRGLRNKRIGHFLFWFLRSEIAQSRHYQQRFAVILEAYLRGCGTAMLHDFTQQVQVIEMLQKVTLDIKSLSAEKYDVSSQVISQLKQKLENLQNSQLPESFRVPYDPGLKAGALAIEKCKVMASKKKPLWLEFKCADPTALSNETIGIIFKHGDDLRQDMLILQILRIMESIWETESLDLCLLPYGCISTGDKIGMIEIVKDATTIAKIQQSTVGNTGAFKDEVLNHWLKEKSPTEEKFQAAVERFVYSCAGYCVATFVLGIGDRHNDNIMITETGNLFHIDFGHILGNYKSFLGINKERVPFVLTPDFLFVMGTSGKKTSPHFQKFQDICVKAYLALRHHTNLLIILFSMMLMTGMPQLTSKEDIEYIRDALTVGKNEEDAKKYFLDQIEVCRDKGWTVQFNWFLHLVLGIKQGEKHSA
# protocol-summary: Human PI3K gamma enzyme assay (HTRF, as for PI3K alpha)
# Assay type: biochemical
# experimental-context: read-out: PI3Kgamma % inh
recorded-metric: inhibition at 1.11 µM (%)

# annotated cases, reported inhibition at 1.11 µM shown
O=C1CCC(c2ccc(Cl)cc2)c2cc(-c3ccncc3)sc21 (single isomer, unassigned) [Compound 22]	14.2
CC1(C)C(=O)c2sc(N3CCOCC3)cc2C1c1ccc(Cl)cc1 (centres unmarked) [Compound 161]	19.3

[a] NC(=O)[C@@H]1NC(=O)c2sc(N3CCOCC3)cc2[C@H]1c1ccc(Cl)c(Cl)c1 (relative stereo) [Compound 146]
[b] Clc1ccc(C2Cc3cn[nH]c3-c3sc(-c4ccncc4)cc32)cc1 (centres unmarked) [Compound 12]
[c] CN1CC(c2ccc(Cl)cc2)c2cc(N3CCOCC3)sc2C1=O (centres unmarked) [Compound 198]
[d] CCNC(=O)[C@@H]1NC(=O)c2sc(N3CCOCC3)cc2[C@H]1c1ccc(Cl)cc1 [Compound 197]
[e] O/N=C1/CCC(c2ccc(Cl)cc2)c2cc(-c3ccncc3)sc21 (centres unmarked) [Compound 18]
Arrange these compounds by their inhibition at 1.11 µM, starting with the largest number. Record the ranking as a list of labels in the requested order.
a, b, e, c, d

[a] O=C1CC(c2ccc(Cl)cc2F)c2cc(N3CCOCC3)sc21 (centres unmarked) [Compound 117]
[b] O=C1NCCCC(c2ccc(Cl)cc2)c2cc(-c3ccncc3)sc21 (centres unmarked) [Compound 31]
[c] CNC(=O)[C@@H]1NC(=O)c2sc(N3CCOCC3)cc2[C@H]1c1ccc(Cl)cc1 [Compound 123]
[d] O/N=C1\CCC(c2ccc(Cl)cc2)c2cc(-c3ccncc3)sc21 (centres unmarked) [Compound 24]
[e] O=C1N[C@@H](CO)[C@H](c2ccc(Cl)c(Cl)c2)c2cc(N3CCOCC3)sc21 (relative stereo) [Compound 192]
Please list these in order of increasing inhibition at 1.11 µM. Thank you! // list labels; follow requested order
b, c, d, a, e

[P] N#Cc1c(N2CCOCC2)sc2c1C(c1c(F)cc(Cl)cc1F)CNC2=O (centres unmarked) [Compound 151]
[Q] N#Cc1c(N2CCOCC2)sc2c1C(c1ccc(Cl)cc1)CCNC2=O (centres unmarked) [Compound 150]
Problem: Given the entries P and Q , determine which has the lower reported inhibition at 1.11 µM. Write down the label of the entry you select.
Q
(Q: 21.5%, P: 41%)

[A] CC1(C)CNC(=O)c2sc(-c3ccncc3)cc2C1c1ccc(Cl)cc1 (centres unmarked) [Compound 140]
[B] COc1cc(C2CC(=O)c3sc(N4CCOCC4)cc32)ccc1Cl (centres unmarked) [Compound 158]
[C] O=C1NCC(c2ccc(Cl)cc2)c2cc(-c3ccncc3)sc21 (centres unmarked) [Compound 30]
Sort the compounds on inhibition at 1.11 µM; start with the lowest figure. Reply: labels, ordered per the request.
C, A, B
(C: 11.2%, A: 18.1%, B: 65.3%)
